Give measured pEC50 for each item. Keep answers brief.
- Target or test system: human Tyk2 (amino acids 575-869, His-tagged) (Homo sapiens, UniProt P29597)
- Sequence (P29597 with tags, fused parts or gaps): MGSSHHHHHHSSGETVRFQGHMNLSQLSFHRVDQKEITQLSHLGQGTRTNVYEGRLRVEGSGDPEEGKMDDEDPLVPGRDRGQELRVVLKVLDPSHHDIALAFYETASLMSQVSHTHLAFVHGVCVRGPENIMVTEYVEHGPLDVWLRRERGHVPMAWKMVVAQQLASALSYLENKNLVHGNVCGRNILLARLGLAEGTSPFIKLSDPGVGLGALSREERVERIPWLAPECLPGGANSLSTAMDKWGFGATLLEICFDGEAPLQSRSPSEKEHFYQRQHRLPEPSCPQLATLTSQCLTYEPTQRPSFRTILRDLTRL
- Procedure summary: Probe displacement assay (SPA format)
- Test settings: radiolabeled probe 40 nM, Tyk2 2.5 nM
Numbers only, as −log10 of the molar value.

INSERT INTO assay_data (molecule, meas_value) VALUES
  ('COc1cnc(Nc2cc(Nc3ccccc3S(C)(=O)=O)c3nc(C)[nH]c3n2)cn1 [Example 6]', 7.43),
  ('Cc1nc2c(Nc3ccccc3S(C)(=O)=O)cc(Nc3cc(F)ccn3)nc2[nH]1 [Example 17]', 7.82),
  ('Cc1nc2c(Nc3ccccc3S(C)(=O)=O)cc(NC(=O)C3CC3)nc2[nH]1 [Example 7]', 7.85);

Challenge: Short answer please: pEC50, human Tyk2 (amino acids 575-869, His-tagged) (Homo sapiens, UniProt P29597), entry CCc1nc2c(Nc3ccccc3S(C)(=O)=O)cc(Nc3cc(C)nc(C)n3)nc2[nH]1 [Example 52]
Response given: 6.97
